Measured values drawn from patent US20260193365A1 for this set.

- Test target: T1, Marmoset monkey (Callithrix jacchus) CCR2 (Marmoset monkey (Callithrix jacchus), UniProt O18793 1-360)
- T1 construct: On primary marmoset monocytes (marmoset blood/PBMC); they may hold print errors; also called marmoset CCR2; marmoset CCR2b
- T1 chain: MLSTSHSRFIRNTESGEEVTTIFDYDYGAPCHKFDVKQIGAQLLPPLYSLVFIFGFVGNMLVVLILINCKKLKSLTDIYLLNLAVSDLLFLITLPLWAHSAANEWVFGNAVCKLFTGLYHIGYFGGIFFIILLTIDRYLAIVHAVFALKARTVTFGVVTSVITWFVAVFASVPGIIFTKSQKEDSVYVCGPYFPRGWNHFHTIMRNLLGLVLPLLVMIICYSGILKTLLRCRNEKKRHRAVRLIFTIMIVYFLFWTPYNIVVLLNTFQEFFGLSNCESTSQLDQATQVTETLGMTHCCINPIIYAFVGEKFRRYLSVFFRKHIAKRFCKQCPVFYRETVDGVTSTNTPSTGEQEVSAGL
- Measurement protocol: cell binding, primary marmoset monocytes
Value type: binding result

DOC3-RH09XRKA (antibody, human IgG1, kappa, V domains shown) VH: EVQLVESGGGLVQPGGSLRLSCAVSGFSLTRYDLSWVRQAPGKGLEWLGVIWTGGGTNYNSAFMSRFSISKDNSKNTVFLQMNSLRAEDTAVYYCARENYYNRRGYFDVWGQGTTVTVSS VL: EIVLTQSPATLSLSPGERATLSCSASSSVSYMHWFQQKPGQAPRLLIYLTSNLASGIPARFSGSGSGTDFTLTISSLEPEDFAVYYCQQRSGSPPTFGPGTKLDIKR; no binding
DOC2-RHAXRKB (antibody, human IgG1, kappa, V domains shown) VH: EVQLVESGGGVVQPGRSLRLSCAASGFTLSNYAMSWVRQAPGKGLEWVAEVSSSGIYIYYSDTVTGRFTISRDNSKNTLYLQMNSLRAEDTAVYYCARDRYAYAMDYWGQGTLVTVSS VL: DIVMTQSPDSLAVSLGERATINCKSSQSLLNSYNQKNSLAWYQQKPGQPPKLLVYFASTRESGVPDRFSGSGSGTDFTLTISSLQAEDVAVYFCQQHYSNPRTFGGGTKLEIKR; no binding
